# tested-on: T1, human APRIL protein (human, UniProt O75888 105-250, limits assumed)
# T1 construct: Bought protein; also called recombinant APRIL protein
# T1 sequence (looked up): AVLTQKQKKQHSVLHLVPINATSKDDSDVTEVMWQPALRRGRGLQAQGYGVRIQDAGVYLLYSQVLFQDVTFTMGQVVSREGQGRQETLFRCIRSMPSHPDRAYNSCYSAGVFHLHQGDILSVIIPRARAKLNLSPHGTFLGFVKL
# test-method-notes: ELISA, coated APRIL; antibody 13.3 nM
Assignment: determine reported OD450 nm for the given binders.
Answers are plain numbers.

binder	OD450 nm
78C11D2D12 (antibody, V domains shown, Mouse hybridoma antibody purified on Protein G) VH: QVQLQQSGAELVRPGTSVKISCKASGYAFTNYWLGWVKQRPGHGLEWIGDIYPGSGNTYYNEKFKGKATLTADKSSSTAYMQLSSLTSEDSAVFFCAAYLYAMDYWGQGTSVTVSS VL: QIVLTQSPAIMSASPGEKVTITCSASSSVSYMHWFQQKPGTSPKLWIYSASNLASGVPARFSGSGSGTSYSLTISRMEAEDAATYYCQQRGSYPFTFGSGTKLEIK	0.0703

Okay, now this binder:
(Q) Return reported OD450 nm; argument: L1D12 (antibody, human IgG1, V domains shown, also called LID12) VH: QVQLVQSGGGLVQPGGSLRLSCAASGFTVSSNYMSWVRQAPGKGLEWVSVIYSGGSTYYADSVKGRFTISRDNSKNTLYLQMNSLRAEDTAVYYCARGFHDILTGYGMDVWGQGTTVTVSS VL: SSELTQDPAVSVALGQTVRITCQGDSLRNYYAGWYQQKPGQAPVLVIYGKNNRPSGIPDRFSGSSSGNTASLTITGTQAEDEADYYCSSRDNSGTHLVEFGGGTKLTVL
(A) 0.124
